# pIC50 per record follows
Molecular target: UniProt:P37136
Sequence (P37136 whole entry): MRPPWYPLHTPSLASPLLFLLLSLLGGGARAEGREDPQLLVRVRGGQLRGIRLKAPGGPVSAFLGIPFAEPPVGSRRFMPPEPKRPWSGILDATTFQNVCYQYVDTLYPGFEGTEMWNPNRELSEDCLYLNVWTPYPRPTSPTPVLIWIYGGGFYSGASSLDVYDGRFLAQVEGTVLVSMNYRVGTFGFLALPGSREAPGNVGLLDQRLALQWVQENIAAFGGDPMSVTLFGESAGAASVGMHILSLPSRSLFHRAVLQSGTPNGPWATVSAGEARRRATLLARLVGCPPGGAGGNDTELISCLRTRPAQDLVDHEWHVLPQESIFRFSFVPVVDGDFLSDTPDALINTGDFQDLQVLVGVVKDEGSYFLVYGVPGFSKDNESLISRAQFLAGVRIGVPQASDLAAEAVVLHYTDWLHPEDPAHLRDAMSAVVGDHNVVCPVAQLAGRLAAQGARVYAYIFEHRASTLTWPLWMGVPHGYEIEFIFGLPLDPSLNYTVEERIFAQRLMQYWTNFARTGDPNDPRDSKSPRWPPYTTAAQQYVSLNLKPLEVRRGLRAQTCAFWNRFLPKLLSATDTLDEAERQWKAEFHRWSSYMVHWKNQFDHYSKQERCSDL
Remember, pIC50 is on a log scale: it is -log10 of the molar concentration.

CCN(CCCNC(=O)c1cc(=O)c2c(O)cc(OC)cc2o1)Cc1ccccc1OC: 6.06

Please provide the recorded pIC50 for `CCN(CCCCCCNC(=O)c1cc(=O)c2c(O)cc(O)cc2o1)Cc1ccccc1OC` , tested on UniProt:P37136. 6.06

Please provide the recorded pIC50 for `COc1ccccc1CN(C)CCCCNC(=O)c1cc(=O)c2c(O)cccc2o1` , tested on UniProt:P37136. 5.86

Please provide the recorded pIC50 for `CCN(CCCCNC(=O)c1cc(=O)c2c(O)cc(N(C)C)cc2o1)Cc1ccccc1OC` , tested on UniProt:P37136. 6.04

The reported numbers originate from ChEMBL document CHEMBL3397027.
